From: ChEMBL document CHEMBL1126415

Target: Purine nucleoside phosphorylase (Homo sapiens)
Sequence (P00491 whole entry): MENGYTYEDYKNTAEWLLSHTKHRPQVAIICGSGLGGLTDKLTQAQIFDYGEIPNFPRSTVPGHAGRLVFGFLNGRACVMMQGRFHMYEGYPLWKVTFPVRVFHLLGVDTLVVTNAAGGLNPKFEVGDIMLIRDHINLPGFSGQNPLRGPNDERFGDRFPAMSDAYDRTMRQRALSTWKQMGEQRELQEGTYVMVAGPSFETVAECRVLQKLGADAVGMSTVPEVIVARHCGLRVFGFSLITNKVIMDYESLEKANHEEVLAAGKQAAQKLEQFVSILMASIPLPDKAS
Assay: Inhibitory activity against human erythrocytic purine nucleoside phosphorylase in the presence of 1 mM (pi) […]

| Molecule | Result units | Ki |
| --- | --- | --- |
| Nc1nc(O)c2ncn(Cc3ccccc3/C=C/P(=O)(O)O)c2n1 | nM | 3.2 |

====

# reported IC50; entries follow
Target: Purine nucleoside phosphorylase (Homo sapiens, UniProt P00491)
Assay: Inhibitory concentration against human erythrocytic purine nucleoside phosphorylase in the presence of 50 mM (pi) […]

| Compound | IC50 / µM |
| --- | --- |
| Nc1nc(O)c2ncn(Cc3ccccc3C(F)C(F)(F)P(=O)(O)O)c2n1 (configuration not stated) | 0.085 |
| Nc1nc(O)c2ncn(Cc3ccccc3/C=C/P(=O)(O)O)c2n1 | 0.155 |
